tested on: cancer cell lines from the cancer cell line encyclopedia (CCLE); test: Cell line profiling (CLiP) proliferation experiment; type: cell-based; settings: TE 617.T (soft_tissue, NS); read-out: Inflection Point
measurement label: EC50 (µM)
Enter your answer as a number in µM; do not include the unit.

query: Item under review: `CC(C)[C@@]12C[C@@H](O)[C@@](C)(O1)[C@@H]1CC[C@@H](C)[C@H]1[C@@H]2OC(=O)/C=C/c1ccccc1` . Reported EC50?
result: 11.9

----------
system: cancer cell lines from the cancer cell line encyclopedia (CCLE); test: Cell line profiling (CLiP) proliferation experiment; format: cell-based; conditions: Homo sapiens, SNU-16, SNU-16 cells; read-out: Inflection Point
measurement label: pEC50
API: returns pEC50 as number; meaning -log10 of concentration in mol/L.

query: cancer cell lines from the cancer cell line encyclopedia (CCLE) / pEC50 / `CC(C)[C@@]12C[C@@H](O)[C@@](C)(O1)[C@@H]1CC[C@@H](C)[C@H]1[C@@H]2OC(=O)/C=C/c1ccccc1` : value?
result: 4.87
